Assignment: determine reported normalized RNA/DNA level with ligand (log10) for the given variants.
B1: library; a variant is named by its letters at N, in order (parent)
chain: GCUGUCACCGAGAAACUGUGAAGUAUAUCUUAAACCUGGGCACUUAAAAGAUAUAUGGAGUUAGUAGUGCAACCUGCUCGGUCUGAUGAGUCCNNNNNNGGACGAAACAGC

Variants of: B1
TEST PROTOCOL: normalized RNA/DNA level with ligand (relative to sTRSVctl = 100) (log10 (% of sTRSVctl)); HEK293T; ligand: cyclic di-GMP (c-di-GMP-II aptamer); ligand concentration (+) RNA-Seq: 1 mM; higher = less ribozyme self-cleavage, higher mRNA level
RUN CONDITIONS: reporter: mCherry (pCS4076), ligand present: yes
Output spec: single numeric token, no unit.

stdin: Bench note: what normalized RNA/DNA level with ligand (log10) did `UAGUUA` show?
stdout: 1.83

stdin: Bench note: what normalized RNA/DNA level with ligand (log10) did `UGCACU` show?
stdout: 1.87

stdin: Bench note: what normalized RNA/DNA level with ligand (log10) did `CCCGAU` show?
stdout: 1.83

stdin: Bench note: what normalized RNA/DNA level with ligand (log10) did `ACGCAG` show?
stdout: 1.81

stdin: Bench note: what normalized RNA/DNA level with ligand (log10) did `CGUUCG` show?
stdout: 1.9

stdin: Bench note: what normalized RNA/DNA level with ligand (log10) did `UUGCAC` show?
stdout: 1.85

stdin: Bench note: what normalized RNA/DNA level with ligand (log10) did `AGACUA` show?
stdout: 1.74

stdin: Bench note: what normalized RNA/DNA level with ligand (log10) did `CAAUUU` show?
stdout: 1.71

stdin: Bench note: what normalized RNA/DNA level with ligand (log10) did `UCAGCC` show?
stdout: 1.88

stdin: Bench note: what normalized RNA/DNA level with ligand (log10) did `CUGCCU` show?
stdout: 1.81

stdin: Bench note: what normalized RNA/DNA level with ligand (log10) did `AGCAUA` show?
stdout: 1.73

stdin: Bench note: what normalized RNA/DNA level with ligand (log10) did `UUACUC` show?
stdout: 1.84

stdin: Bench note: what normalized RNA/DNA level with ligand (log10) did `UUUUCA` show?
stdout: 1.91

stdin: Bench note: what normalized RNA/DNA level with ligand (log10) did `AUGCCC` show?
stdout: 1.82

stdin: Bench note: what normalized RNA/DNA level with ligand (log10) did `GACUCC` show?
stdout: 1.89

stdin: Bench note: what normalized RNA/DNA level with ligand (log10) did `ACAGAG` show?
stdout: 1.59

stdin: Bench note: what normalized RNA/DNA level with ligand (log10) did `CUGAUC` show?
stdout: 1.76

stdin: Bench note: what normalized RNA/DNA level with ligand (log10) did `GUAGAU` show?
stdout: 1.72

stdin: Bench note: what normalized RNA/DNA level with ligand (log10) did `UUGCCC` show?
stdout: 1.84

stdin: Bench note: what normalized RNA/DNA level with ligand (log10) did `ACCACG` show?
stdout: 1.81

stdin: Bench note: what normalized RNA/DNA level with ligand (log10) did `ACGAGU` show?
stdout: 1.7

stdin: Bench note: what normalized RNA/DNA level with ligand (log10) did `CUUAUC` show?
stdout: 1.87

stdin: Bench note: what normalized RNA/DNA level with ligand (log10) did `AUCCAC` show?
stdout: 1.85

stdin: Bench note: what normalized RNA/DNA level with ligand (log10) did `UUGACG` show?
stdout: 1.88

stdin: Bench note: what normalized RNA/DNA level with ligand (log10) did `UUCAAA` show?
stdout: 1.79

stdin: Bench note: what normalized RNA/DNA level with ligand (log10) did `UUAAGG` show?
stdout: 1.9

stdin: Bench note: what normalized RNA/DNA level with ligand (log10) did `UUAGUU` show?
stdout: 1.86

stdin: Bench note: what normalized RNA/DNA level with ligand (log10) did `CAUAGA` show?
stdout: 1.69

stdin: Bench note: what normalized RNA/DNA level with ligand (log10) did `GCCCAG` show?
stdout: 1.97

stdin: Bench note: what normalized RNA/DNA level with ligand (log10) did `CGGUCG` show?
stdout: 1.9

stdin: Bench note: what normalized RNA/DNA level with ligand (log10) did `UAUUUG` show?
stdout: 1.86

stdin: Bench note: what normalized RNA/DNA level with ligand (log10) did `GUACGG` show?
stdout: 1.77

stdin: Bench note: what normalized RNA/DNA level with ligand (log10) did `UUACCG` show?
stdout: 1.88

stdin: Bench note: what normalized RNA/DNA level with ligand (log10) did `AGGACU` show?
stdout: 1.82

stdin: Bench note: what normalized RNA/DNA level with ligand (log10) did `CUCAGA` show?
stdout: 1.78

stdin: Bench note: what normalized RNA/DNA level with ligand (log10) did `AUACGG` show?
stdout: 1.74

stdin: Bench note: what normalized RNA/DNA level with ligand (log10) did `AACGUU` show?
stdout: 1.82

stdin: Bench note: what normalized RNA/DNA level with ligand (log10) did `GCACAU` show?
stdout: 1.69

stdin: Bench note: what normalized RNA/DNA level with ligand (log10) did `UGACCU` show?
stdout: 1.87

stdin: Bench note: what normalized RNA/DNA level with ligand (log10) did `UUGUGG` show?
stdout: 1.9

stdin: Bench note: what normalized RNA/DNA level with ligand (log10) did `UCACCA` show?
stdout: 1.84

stdin: Bench note: what normalized RNA/DNA level with ligand (log10) did `CAUUUG` show?
stdout: 1.91

stdin: Bench note: what normalized RNA/DNA level with ligand (log10) did `CGAAGG` show?
stdout: 1.82

stdin: Bench note: what normalized RNA/DNA level with ligand (log10) did `GUCACC` show?
stdout: 1.85

stdin: Bench note: what normalized RNA/DNA level with ligand (log10) did `GAUUCU` show?
stdout: 1.86

stdin: Bench note: what normalized RNA/DNA level with ligand (log10) did `CAAAAU` show?
stdout: 1.65

stdin: Bench note: what normalized RNA/DNA level with ligand (log10) did `CUAAAU` show?
stdout: 1.69

stdin: Bench note: what normalized RNA/DNA level with ligand (log10) did `GAAACA` show?
stdout: 1.73

stdin: Bench note: what normalized RNA/DNA level with ligand (log10) did `GGUAUA` show?
stdout: 1.72

stdin: Bench note: what normalized RNA/DNA level with ligand (log10) did `UAUGAA` show?
stdout: 1.78

stdin: Bench note: what normalized RNA/DNA level with ligand (log10) did `GCUCUA` show?
stdout: 1.8

stdin: Bench note: what normalized RNA/DNA level with ligand (log10) did `AACACA` show?
stdout: 1.75

stdin: Bench note: what normalized RNA/DNA level with ligand (log10) did `UUGUCU` show?
stdout: 1.92

stdin: Bench note: what normalized RNA/DNA level with ligand (log10) did `CCUUUU` show?
stdout: 1.77

stdin: Bench note: what normalized RNA/DNA level with ligand (log10) did `GUAAAA` show?
stdout: 1.73

stdin: Bench note: what normalized RNA/DNA level with ligand (log10) did `ACCAUG` show?
stdout: 1.74

stdin: Bench note: what normalized RNA/DNA level with ligand (log10) did `CUGGCG` show?
stdout: 1.85

stdin: Bench note: what normalized RNA/DNA level with ligand (log10) did `GCAGGA` show?
stdout: 1.56

stdin: Bench note: what normalized RNA/DNA level with ligand (log10) did `GCCGUU` show?
stdout: 1.77

stdin: Bench note: what normalized RNA/DNA level with ligand (log10) did `CUCGUA` show?
stdout: 1.76

stdin: Bench note: what normalized RNA/DNA level with ligand (log10) did `ACCGUC` show?
stdout: 1.83

stdin: Bench note: what normalized RNA/DNA level with ligand (log10) did `AAUAUG` show?
stdout: 1.74

stdin: Bench note: what normalized RNA/DNA level with ligand (log10) did `AAGCAU` show?
stdout: 1.82

stdin: Bench note: what normalized RNA/DNA level with ligand (log10) did `CAUACU` show?
stdout: 1.7

stdin: Bench note: what normalized RNA/DNA level with ligand (log10) did `CUCUGU` show?
stdout: 1.91

stdin: Bench note: what normalized RNA/DNA level with ligand (log10) did `AUGCUA` show?
stdout: 1.77

stdin: Bench note: what normalized RNA/DNA level with ligand (log10) did `CUAAGA` show?
stdout: 1.72

stdin: Bench note: what normalized RNA/DNA level with ligand (log10) did `UCGGCC` show?
stdout: 1.95

stdin: Bench note: what normalized RNA/DNA level with ligand (log10) did `UCGGGU` show?
stdout: 1.79

stdin: Bench note: what normalized RNA/DNA level with ligand (log10) did `ACGACG` show?
stdout: 1.74

stdin: Bench note: what normalized RNA/DNA level with ligand (log10) did `UUGAUU` show?
stdout: 1.81

stdin: Bench note: what normalized RNA/DNA level with ligand (log10) did `UCCCAC` show?
stdout: 1.87

stdin: Bench note: what normalized RNA/DNA level with ligand (log10) did `CAUACG` show?
stdout: 1.91

stdin: Bench note: what normalized RNA/DNA level with ligand (log10) did `UGCACG` show?
stdout: 1.91

stdin: Bench note: what normalized RNA/DNA level with ligand (log10) did `AACAAG` show?
stdout: 1.73

stdin: Bench note: what normalized RNA/DNA level with ligand (log10) did `AGUACU` show?
stdout: 1.85

stdin: Bench note: what normalized RNA/DNA level with ligand (log10) did `UACAGC` show?
stdout: 1.77

stdin: Bench note: what normalized RNA/DNA level with ligand (log10) did `GUGGGG` show?
stdout: 1.8

stdin: Bench note: what normalized RNA/DNA level with ligand (log10) did `UUACCC` show?
stdout: 1.88

stdin: Bench note: what normalized RNA/DNA level with ligand (log10) did `UCUGAA` show?
stdout: 1.73

stdin: Bench note: what normalized RNA/DNA level with ligand (log10) did `GCUUAU` show?
stdout: 1.76

stdin: Bench note: what normalized RNA/DNA level with ligand (log10) did `AAUGCU` show?
stdout: 1.85

stdin: Bench note: what normalized RNA/DNA level with ligand (log10) did `UAUCGU` show?
stdout: 1.79

stdin: Bench note: what normalized RNA/DNA level with ligand (log10) did `GAUCUG` show?
stdout: 1.84

stdin: Bench note: what normalized RNA/DNA level with ligand (log10) did `AAGACG` show?
stdout: 1.73

stdin: Bench note: what normalized RNA/DNA level with ligand (log10) did `CUGUAC` show?
stdout: 1.82

stdin: Bench note: what normalized RNA/DNA level with ligand (log10) did `UCACUG` show?
stdout: 1.81

stdin: Bench note: what normalized RNA/DNA level with ligand (log10) did `GCGCCA` show?
stdout: 1.84

stdin: Bench note: what normalized RNA/DNA level with ligand (log10) did `CCACGU` show?
stdout: 1.81

stdin: Bench note: what normalized RNA/DNA level with ligand (log10) did `AAGGCA` show?
stdout: 1.71

stdin: Bench note: what normalized RNA/DNA level with ligand (log10) did `UAACGU` show?
stdout: 1.71
